Test: T cell viability by flow cytometry
Assay type: cell-based
Conditions: human, purified T cells from healthy donors, T cells viability (#1); Drug 500 nM
Recorded metric: viability at 4 days, 500 nM (%)
Give the value, in units of %, as a plain number.

• Cc1c(N[S+](=O)([O-])c2c(Cl)cc(-c3ccnc(N4CCNCC4)c3)cc2Cl)c(CC(C)C)nn1C = 10

Switching to the query record.
The reported value for Cc1nn(C)c(C)c1CCOc1c(-c2ccc3c(c2)c(CN(C)C)nn3C)ccc(F)c1F [IMP-1088, reference compound] in terms of viability at 4 days, 500 nM is 6

* * *

Test: T cell viability by flow cytometry
Type: cell-based
Settings: human, purified T cells from healthy donors, T cells viability (#3); Drug 500 nM
Recorded metric: viability at 4 days, 500 nM (%)
Give the value, in units of %, as a plain number.

- Cc1nn(C)c(C)c1CCOc1c(-c2ccc3c(c2)c(CN(C)C)nn3C)ccc(F)c1F [IMP-1088, reference compound]: 70

Switching to the query record.
The reported value for Cc1c(N[S+](=O)([O-])c2c(Cl)cc(-c3ccnc(N4CCNCC4)c3)cc2Cl)c(CC(C)C)nn1C in terms of viability at 4 days, 500 nM is 68

* * *

Test: T cell viability by flow cytometry
Assay type: cell-based
Conditions: human, T cells viability (#3); Drug 500 nM
Recorded metric: viability at 4 days, 500 nM (%)
Give the value, in units of %, as a plain number.

The reported value for Cc1nn(C)c(C)c1N[S+](=O)([O-])c1c(Cl)cc(-c2ccnc(N3CCNCC3)c2)cc1Cl in terms of viability at 4 days, 500 nM is 69

* * *

Test: T cell viability by flow cytometry
Format: cell-based
Conditions: human, purified T cells from healthy donors, T cells viability (#2); Drug 500 nM
Recorded metric: viability at 4 days, 500 nM (%)
Give the value, in units of %, as a plain number.

- Cc1c(N[S+](=O)([O-])c2c(Cl)cc(-c3ccnc(N4CCNCC4)c3)cc2Cl)c(CC(C)C)nn1C [PCLX-001]: 62

Switching to the query record.
The reported value for Cc1nn(C)c(C)c1CCOc1c(-c2ccc3c(c2)c(CN(C)C)nn3C)ccc(F)c1F [IMP-1088, reference compound] in terms of viability at 4 days, 500 nM is 59

* * *

# viability at 4 days, 20 nM listing for each entry below
Test: T cell viability by flow cytometry
Type: cell-based
Conditions: human, purified T cells from healthy donors, T cells viability (#2); Drug 20 nM
Give the value, in units of %, as a plain number.

* Cc1c(N[S+](=O)([O-])c2c(Cl)cc(-c3ccnc(N4CCNCC4)c3)cc2Cl)c(CC(C)C)nn1C [PCLX-001] | 66

The reported value for Cc1nn(C)c(C)c1CCOc1c(-c2ccc3c(c2)c(CN(C)C)nn3C)ccc(F)c1F [IMP-1088, reference compound] in terms of viability at 4 days, 20 nM is 61

* * *

Assay: T cell viability by flow cytometry
Format: cell-based
Settings: human, T cells viability (#2); Drug 20 nM
Recorded metric: viability at 4 days, 20 nM (%)
Give the value, in units of %, as a plain number.

The reported value for Cc1nn(C)c(C)c1N[S+](=O)([O-])c1c(Cl)cc(-c2ccnc(N3CCNCC3)c2)cc1Cl [PCLX-002] in terms of viability at 4 days, 20 nM is 65
